Experiment: NCI Yeast Anticancer Drug Screen. Data for the sgs1 mgt1 strain (AID 161);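 further: 0% = growth of cultures given vehicle only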
Details: S. cerevisiae sgs1 mgt1 strain, at 50.0 µM
Compounds without any hit were thinned out: in the full panel of roughly 79,000, 15% have a hit. The source made the active and inactive calls. No stated cut-off is given here; in the data, active means growth inhibition above about 70%; inactive means the rest.
Choose the fitting class; nothing outside true (1) = active, false (0) = inactive is accepted.

Worked examples, 5 compounds total:
Record lookup: outcome of this test for COc1ccccc1C1C2=C(COC2=O)OC(C)(C)Oc2cc3c(cc21)OCO3 (stereo not drawn) ?
true (1)

Dear all, I need the recorded test outcome for CC(C)(C)OC(=O)NCCNC(=O)CN(CC(=O)O)C1CCCCC1N(CC(=O)O)CC(=O)O (stereo not drawn) , thank you.
false (0)

Recorded test outcome, item `Cc1cc(N2C(=O)CCSC2=S)c([N+](=O)[O-])cc1C`
true (1)

Dear all, I need the recorded test outcome for `CCC(=S)N(C)O` , thank you.
false (0)

Hey, what did the test say about `O=C(O)CNc1ccc2c(c1)Cc1cc(Br)ccc1-2` ?
true (1)

Further cases:
What is the recorded call for this compound in the test? `COC(=O)CCCCCCCCCCC(=O)O`
false (0)

----------
Experiment: NCI Yeast Anticancer Drug Screen. Data for the mec2-1 strain (AID 157)
Settings: S. cerevisiae mec2-1 strain, at 5.0 µM (retest, dose inferred, filed as 0.5), stronger effect = higher value
About 79,000 compounds went through this panel and 15% of them were active in at least one assay; those are over-represented in the sample as a whole.
# Lookup of reported growth inhibition keyed by entry
// return numeric value only (unit: %, not printed)

Provide growth inhibition value for the following compound: COc1cccc2c1C(=O)c1c(O)c3c(c(O)c1C2=O)C[C@@](O)(/C(C)=N/NC(=O)c1ccc(Cl)c(Cl)c1)C[C@@H]3OC1CC(N)C(O)C(C)O1 (some centres not stated)
25

// Input: `C/C(=N\NC(=S)N1CCCC1)c1cnccn1` . Output its growth inhibition only.
56

Continuing:
Return growth inhibition for the following compound: `NC(=Nc1ccccc1)c1ccc2c(c1)c1c(n2Cc2ccccc2)CCCC1`
-7

Dear colleague, please send me the reported growth inhibition for `CC(/C=C/c1ccc(Cl)c(Cl)c1)=N\NC(N)=S` when you can.
31

Consider the compound COc1ccc(C2=CCC3C4CC=C5CC(O)CCC5(C)C4CCC23C)s1 (configuration not stated) and give its recorded growth inhibition.
-17

Determine from records and report growth inhibition for C/C=C(/CCC1NCCC2c3ccccc3NC12)[Si](C)(C)C (configuration not stated)
-5

Supply reported growth inhibition belonging to this compound: `CCOC(CN(C)C(=O)Nc1ccc(Cl)c(Cl)c1)OCC`
2

In one line, give reported growth inhibition of the entry `N=C(N)c1ccc(OCCCCOc2ccc(N)cc2Cl)cc1` .
-2

Please report growth inhibition for the following compound: `CCN(CC)CCNc1ccc(C)c2sc3c(OC)cccc3c(=O)c12`
-1

Specify measured growth inhibition for `Cc1cc2nc(CC(=O)c3ccc4ccccc4c3)c(=O)[nH]c2cc1C` .
-3

Give the reported growth inhibition for this compound. `O=C1C(=O)N(c2ccccc2)N=C1N=Nc1ccccc1`
8

State its growth inhibition for this compound: `COc1ccc(-c2cc(=O)c3c(C)ccnc3[nH]2)cc1`
43

----------
growth inhibition values by entry
Test: NCI Yeast Anticancer Drug Screen. Data for the mlh1 rad18 strain (AID 175)
Settings: S. cerevisiae mlh1 rad18 strain growth inhibition; at 5.0 µM (retest, dose inferred, filed as 0.5); stronger effect = higher value
The panel holds about 79,000 compounds, 15% with a hit somewhere; the sample as a whole holds those more often.
Record the value in %, omitting the unit from your answer.

Worked cases, growth inhibition given:
Provide growth inhibition value for the following compound: `CCN(CC)CCOc1c(Cl)c(Cl)c(Cl)c(Cl)c1Cl`
7

Give the reported growth inhibition for this compound. COC(=O)C12OCC34C(CC5C(C)C6=CC(=O)OC6=CC5(C)C3C(O)C1O)OC(=O)C(O)C24 (stereo unspecified)
33

Answer with the recorded growth inhibition for the compound listed here: `O=c1c2cc3ccccc3cc2c(=O)n2n1CC=CC2`
25

For CCCCC(CC)COP(=O)(OCC(CC)CCCC)OCC(CC)CCCC (stereo unspecified) , write its growth inhibition.
-4

// fetch growth inhibition given entry `CCCC(=O)NCCNC(=O)CCC`
-139

Others:
Query growth inhibition for `Nc1ccc2[nH]c3ccccc3c2c1`
0

Supply recorded growth inhibition for COc1ccc(C(C)c2cc3c(cc2O)OCO3)cc1 (stereo unspecified) here.
7

Using the record for `c1ccc2c(CCc3ccncc3)c[nH]c2c1` , state its measured growth inhibition.
-13

Write down growth inhibition measured for item `N#CC(C#N)=C1C(Br)=CCc2ccccc21`
100

Supply measured growth inhibition of `Cc1c(C)c(NC(=O)/C=C/C(=O)O)c(C)c(C)c1NC(=O)/C=C\C(=O)O` in your reply.
-31

----------
Assay: NCI Yeast Anticancer Drug Screen. Data for the bub3 strain (AID 167)
Details: S. cerevisiae bub3 mutant strain, at 50.0 µM, stronger effect = higher value
Compounds without any hit were thinned out: in the full panel of roughly 79,000, 15% have a hit.
True means recorded growth inhibition is 80% or above; False means it is below 80%.

Check if growth inhibition >= 80% (inclusive). Item: `O=C1c2ccccc2C(=O)c2cc(N3C(=O)C=CC3=O)ccc21`
True

Others:
growth inhibition >= 80% for `CC(=O)N(c1ccccc1)C(C)C` ?
False

----------
Test: NCI Yeast Anticancer Drug Screen. Data for the sgs1 mgt1 strain (AID 161);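 further: 0% = growth of cultures given vehicle only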
Details: S. cerevisiae sgs1 mgt1 strain, at 50.0 µM (retest, dose inferred, filed as 5.0)
The panel holds about 79,000 compounds, 15% with a hit somewhere; the sample as a whole holds those more often. Activity calls are given as the source filed them. No stated cut-off is given here; in the data, active means growth inhibition above about 70%; inactive means the rest.
Please state which outcome applies, choosing from 1 (yes) (active), 0 (no) (inactive)

For COC(=O)C(=O)C(C(=O)C(=O)Nc1ccc(C)cc1C)c1nc2ccccc2[nH]c1=O (stereo not given) , which call appears in the assay record?
0 (no)

---
State the result this test recorded for `C/C(=N\NC(=S)Nc1ccc([N+](=O)[O-])cc1)c1nc2ncccc2[nH]1` .
1 (yes)

What did the test return for `CCOC(=O)/C=C\c1c(Cl)n(-c2ccccc2)c(=O)n(-c2ccccc2)c1=O` ?
1 (yes)

// param item: CCCCCCC(=O)CCCCCC/C=C\CC1OC(=O)C(N)(CO)C1O (stereo not given) ; yields the recorded call
1 (yes)

Please indicate how the test categorized `Cn1c2nc(-[n+]3ccc4ccccc4c3)nc-2c([O-])n(C)c1=O` .
1 (yes)

GET /call?item= Cc1ccc(C2CC(c3cccc([N+](=O)[O-])c3)=Nc3ccccc3S2)cc1 (stereo not given) returns the recorded outcome of this test.
0 (no)

----------
Experiment: NCI Yeast Anticancer Drug Screen. Data for the rad50 strain (AID 155);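 further: 0% = growth of vehicle-only cultures of the same strain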
Conditions: S. cerevisiae rad50 strain growth inhibition; at 50.0 µM; stronger effect = higher value
The panel holds about 79,000 compounds, 15% with a hit somewhere; the sample as a whole holds those more often.
MEASURED PARAMETER: growth inhibition (%)
Write the answer as a number in %, unit excluded.

Note down growth inhibition recorded for `Nc1ccc2c(c1)CN1C(=O)c3ccccc3C1=N2`
67.3

Quote growth inhibition reported for OC(CBr)C[n+]1cccc2cc(Cl)ccc21 (configuration not stated) please.
-40

Fill in reported growth inhibition for this entry: `O=C(N/C(=C\c1ccc(Cl)cc1)c1nc2ccccc2[nH]1)c1ccccc1`
97.3

Look up and state reported growth inhibition for `Cc1ccc(NC(=O)/C(CC(=O)c2sc(Nc3ccc(Cl)c(Cl)c3)nc2C)=N\Nc2ccc([N+](=O)[O-])cc2[N+](=O)[O-])c(C)c1`
97.7

# return recorded growth inhibition for entry CCNCC(O)COc1ccc2c(c1)[n+]([O-])nc(N)[n+]2[O-] (configuration not stated)
61.1

More entries:
Consider the molecule `CN1C(=O)c2cccc3c([N+](=O)[O-])ccc(c23)C1=O` . State its measured growth inhibition.
79.3

State its growth inhibition for this molecule: `C=CS(=O)(=O)c1ccc(C)cc1`
84

----------
Assay: NCI Yeast Anticancer Drug Screen. Data for the mlh1 rad18 strain (AID 175)
Conditions: S. cerevisiae mlh1 rad18 strain growth inhibition; at 5.0 µM (retest, dose inferred, filed as 0.5); stronger effect = higher value
About 79,000 compounds went through this panel and 15% of them were active in at least one assay; those are over-represented in the sample as a whole.
# maps each entry to its growth inhibition
Express your answer in %, writing the number without its unit.

Find the measured growth inhibition of `CCCCNc1ccc(-c2c(N)nc(N)nc2CC)cc1[N+](=O)[O-]` and report it.
-9

Could you please provide reported growth inhibition for `[Cu+2].[NH-]c1ccccc1O.[NH-]c1ccccc1[OH2+]` ? Thanks!
28

Return growth inhibition for the following compound: `COc1ccc(/C=C2\NC(=O)NC2=O)cc1`
-1

Next:
Give the reported growth inhibition for this compound. `O=C(C[N+]1(CCc2ccccc2)CCOCC1)c1ccc(-c2ccccc2)cc1`
12

Please list growth inhibition recorded for the compound CC(=O)OC1SC(C)(C)n2c1nc1ccccc1c2=O (centres undefined)
2

Respond only with growth inhibition recorded for CC(C)c1cc(O)c2c(c1O)C1CC3C(C)(C)CCC[C@]23C(=O)O1 (some centres undefined)
3

Could you please provide reported growth inhibition for CCN1CCC(O)(/C=C/c2cccc(C)c2)C(C(=O)/C=C/c2cccc(C)c2)C1 (centres undefined) ? Thanks!
64

Identify measured growth inhibition corresponding to `CC(C)C[C@H](NC(=O)[C@H](Cc1ccccc1)NC(=O)c1cnccn1)B(O)O`
55

Determine its reported growth inhibition: `O=P1(Cc2ccccc2)c2ccccc2-c2ccccc21`
4

Dear colleague, please send me the reported growth inhibition for Cc1ccc(N=Nc2c(C)c(C#N)c(=S)n(C3OC(CO)C(O)C(O)C3O)c2-c2ccccc2)cc1 (centres undefined) when you can.
-17

Identify the reported growth inhibition for the following entry. COC(=O)c1ccc(C)cc1CC1Cc2cc(C)ccc2C1=O (centres undefined)
-12

Please supply the value of reported growth inhibition for the item `NC(=S)c1cccc(OCCCOc2ccccc2)c1`
4

Quick one: give measured growth inhibition for `CC(C)c1ccc2c(c1)CC[C@@H]1[C@](C)(CO)CCC[C@]21C`
-16

Look up and report measured growth inhibition for this entry: `O=C(CSc1nccc(=O)[nH]1)c1ccccc1`
4
